System: HPPD polypeptides
Assay: coupled HPPD activity assay: turnover and residual turnover in crude extracts
Format: biochemical, Pseudomonas fluorescens
Conditions: presence of 100 μM Cmpd. 1; high substrate concentration; changes in absorbance (OD) at 320 nm
measure: Residual turnover
I only need the number, thanks.

Reference set, count: 3
Lookup result for 57 (protein, mutant HPPD polypeptide) MADLYENPMGLMGFEFIEFASPTPGTLEPIFEIMGFTKVATHRSKNVHLYRQGEINLILNNEPNSIASYFAAEHGPSVCGMAFRVKDSQKAYNRALELGAQPIHIDTGPMELNLPAIKGIGGAPLYLIDRFGEGSSIYDIDFVYLEGVERNPVGAGLKVIDHLTHNVYRGRMVYWANFYEKLFNFREARYFDIKGEYTGLTSKAMSAPDGMIRIPLNEESSKGAGQIEEFLMQFNGEGIQHVAFLTDDLVKTWDALKKIGMRFMTAPADNYYEMLEGRLPDHGEPVDQLQARGILLDGSSVEGDKRLLLQIFSETLMGPVFFEFIQRKGDDGFGPHSFKVLFEQKERDQVRRGVLTAD ; measured Residual turnover: 0.099

Lookup result for 45 (protein, mutant HPPD polypeptide) MADLYENPMGLMGFEFIEFASPTPGTLEPIFEIMGFTKVATHRSKNVHLYRQGEINLILNNEPNSIASYFAAEHGPSVCGMAFRVKDSQKAYNRALELGAQPIHIDTGPMELNLPAIKGIGGAPLYLIDRFGEGSSIYDIDFVYLEGVERNPVGAGLKVIDHLTHNVYRGRMVYWANFYEKLFNFREARYFDIKGEYTGLTSKAMSAPDGMIRIPLNEESSKGAGQIEEFLMQFNGEGIQHVAFLTDDLVKTWDALKKIGMRFMTAPADNYYEMLEGRLPDHGEPVDQLQARGILLDGSSVEGDKRLLLQIFSETLMGPVFFEFIQRKGDDGFGPHSFKVLFEQVERDQVRRGVLTAD ; measured Residual turnover: 0.121

Lookup result for 16 (protein, mutant HPPD polypeptide) MADLYENPMGLMGFEFIEFASPTPGTLEPIFEIMGFTKVATHRSKNVHLYRQGEINLILNNEPNSIASYFAAEHGPSVCGMAFRVKDSQKAYNRALELGAQPIHIDTGPMELNLPAIKGIGGAPLYLIDRFGEGSSIYDIDFVYLEGVERNPVGAGLKVIDHLTHNVYRGRMVYWANFYEKLFNFREARYFDIKGEYTGLTSKAMSAPDGMIRIPLNEESSKGAGQIEEFLMQFNGEGIQHVAFLTDDLVKTWDALKKIGMRFMTAPSDNYYEMLEGRLPDHGEPVDQLQARGILLDGSSVEGDKRLLLQIFSETLMGPVFFEFIQRKGDDGFGPDSFKVLFESVERDQVRRGVLTAD ; measured Residual turnover: 0.083

Others:
Lookup result for 53 (protein, mutant HPPD polypeptide) MADLYENPMGLMGFEFIEFASPTPGTLEPIFEIMGFTKVATHRSKNVHLYRQGEINLILNNEPNSIASYFAAEHGPSVCGMAFRVKDSQKAYNRALELGAQPIHIDTGPMELNLPAIKGIGGAPLYLIDRFGEGSSIYDIDFVYLEGVERNPVGAGLKVIDHLTHNVYRGRMVYWANFYEKLFNFREARYFDIKGEYTGLTSKAMSAPDGMIRIPLNEESSKGAGQIEEFLMQFNGEGIQHVAFLTDDLVKTWDALKKIGMRFMTAPADNYYEMLEGRLPDHGEPVDQLQARGILLDGSSVEGDKRLLLQIFSETLMGPVFFEFIQRKGDDGFGPDSFKVLFEQVERDQVRRGVLTAD ; measured Residual turnover: 0.107
